system: Y611 FHB3; assay: MIC80 determination, C. albicans clinical isolate Y611 FHB3; format: cell-based; conditions: Candida albicans, 24 h, pH 7
Readings of MIC80 for the listed molecules
PROPERTY: MIC80 (µM)

INSERT INTO measurements (molecule, property, measure_unit, endpoint_result) VALUES
  ('O=C(NCC(O)(Cn1cncn1)c1ccc(F)cc1F)c1cccc(-c2ccc(OC(F)(F)F)cc2)c1 (stereo not drawn)', 'MIC80', 'µM', 3.4),
  ('O=C(NCC(O)(Cn1cncn1)c1ccc(F)cc1F)c1ccc(-c2ccc(OC(F)(F)F)cc2)cc1 (stereo not drawn)', 'MIC80', 'µM', 1.65),
  ('O=C(NCC(O)(Cn1cncn1)c1ccc(F)cc1F)c1cccc(-c2ccc(C(F)(F)F)cc2)c1 (stereo not drawn)', 'MIC80', 'µM', 4.25),
  ('O=C(NCC(O)(Cn1cncn1)c1ccc(F)cc1F)c1ccc(NC(=O)c2ccc(Cl)cc2)cc1 (stereo not drawn)', 'MIC80', 'µM', 19.5),
  ('O=C(NCC(O)(Cn1cncn1)c1ccc(F)cc1F)c1ccc2cc(F)ccc2c1 (stereo not drawn)', 'MIC80', 'µM', 2.4),
  ('CC[C@@H]([C@H](C)O)n1ncn(-c2ccc(N3CCN(c4ccc(OC[C@@H]5CO[C@@](Cn6cncn6)(c6ccc(F)cc6F)C5)cc4)CC3)cc2)c1=O [PCZ, posaconazole, reference compound]', 'MIC80', 'µM', 0.53);
